- Assayed System: HLA-B*58:01 (Homo sapiens, UniProt P01889, A329T/C349S/D201E/D98Y/E176V/E187L/E204Q/E69T/G107R/I218V/I90N/K202T/L105A/L119I/N104I/N87E/Q89R/Q94S/R106L/R155S/R180L/R86G/S101N/S121R/S35A/S48A/T118I/V127L/V306I/V36M/Y140S/Y91M)
- Assay type: binding
- Conditions Used: percent relative the binding of positive control peptide IAMESIVIW; duplicated experiments; positive binder >40%
Answer each item with its documented Bind B*58:01.
# output: bare number, implied unit %

State the recorded Bind B*58:01 for this entry: EAAASAIQG [Rv3875_12–20]
0

Which value of Bind B*58:01 has been reported for SGSEAYQGV [Rv3875_46–54] in the records?
2

Please look up its Bind B*58:01: LTKLAAAWG [Rv3875_36-44]
47

Give its Bind B*58:01 value. Item: EAYQGVQQK [Rv3875_49–57]
0

Tell me the measured Bind B*58:01 of NLARTISEA [Rv3875_71–79] , please.
21

Reported Bind B*58:01, sequence GVQQKWDAT [Rv3875_53–61] : ____
6

# input sequence: RTISEAGQA [Rv3875_74–82] ; wanted: its Bind B*58:01
34

Query (sequence): AYQGVQQKW [Rv3875_50–58] ; field requested: Bind B*58:01
35

# lookup: Bind B*58:01 of LAAAWGGSG [Rv3875_39-47]
7

Looking for the measured Bind B*58:01 of SAIQGNVTS [Rv3875_16–24] , can you help?
12

Field request: Bind B*58:01 | item: TATELNNAL [Rv3875_61–69]
0

Recorded Bind B*58:01 for LLDEGKQSL [Rv3875_28–36] , please?
2

Look up Bind B*58:01: AAAWGGSGS [Rv3875_40-48]
8

Tell me the measured Bind B*58:01 of QQWNFAGIE [Rv3875_4–12] , please.
0

Quick check: Bind B*58:01 of ATATELNNA [Rv3875_60–68] ?
0

I would be grateful if you could share the reported Bind B*58:01 for LQNLARTIS [Rv3875_69–77] .
20

* * *

- Assayed System: HLA-B*58:01 (Homo sapiens, UniProt P01889, A329T/C349S/D201E/D98Y/E176V/E187L/E204Q/E69T/G107R/I218V/I90N/K202T/L105A/L119I/N104I/N87E/Q89R/Q94S/R106L/R155S/R180L/R86G/S101N/S121R/S35A/S48A/T118I/V127L/V306I/V36M/Y140S/Y91M)
- Assay type: binding
- Conditions Used: percent relative the binding of positive control peptide […]; duplicated experiments; positive binder >40%
Property Measured: Bind B*58:01 (%)
Give just the number in %; leave the unit off.

Look up Bind B*58:01: AEFLENFVR
10

Recorded Bind B*58:01 for SAMILAAYH , please?
0

Fill blank: measured Bind B*58:01 of the sequence NTMAMMARD [Rv0288_79–87] is ____.
0

Reported Bind B*58:01 for AYHPQQFIY : what is it?
35

Given the entry QIMYNYPTM [Rv0288_3–11m1] , report its measured Bind B*58:01.
9

Source of measurements: paper PMC3608651
